assay-method-text: Toxicity liver stage against HepG2, at 10uM
Assay type: cell-based
Set-up: test concentration 10 uM, cell line HepG2-A16-CD81EGFP
cond: human, HepG2-A16-CD81EGFP cells; read-out: INHIBITION
Each record is given Yes if its reported cytotoxicity at 10 µM is strictly below -20%. Records at or above -20% are given No.

Answered examples (3):
{"molecule": "O=S(=O)(c1ccccc1)N1CCN(CCn2ccnc2)CC1", "class-label": "Yes"}
{"molecule": "CC(C)c1cc(NCC(O)CO)n2nccc2n1 (stereo unspecified)", "class-label": "Yes"}
{"molecule": "CC(C)CS(=O)(=O)CCNc1ncccn1", "class-label": "No"}

Task: # TODO verify cytotoxicity at 10 µM < -20% strictly for this molecule: CCc1nc(N)sc1C(=O)N1CCCC(COc2cccc(C)c2)C1 (stereo unspecified)
Result: Yes

Task: Criterion: cytotoxicity at 10 µM strictly below -20%. Is it met by COc1ccc(-c2nnc(SC(C)C(=O)NC3CCCC3)[nH]2)c(OC)c1 (stereo unspecified) ?
Result: No

Task: cytotoxicity at 10 µM under -20%? Item: Cn1cc(CN2CCCC3(CCN(C(=O)c4ccccn4)C3)C2)cn1 (stereo unspecified)
Result: Yes

---

assay-method-text: Toxicity liver stage against HepG2, at 10uM
Assay type: cell-based
Design: test concentration 10 uM, cell line HepG2-A16-CD81EGFP
cond: human, HepG2-A16-CD81EGFP cells; read-out: INHIBITION
observable: cytotoxicity at 10 µM
Respond with a number, then the unit of measure.

Consider the worked cases shown below.
{"compound": "COc1ccc(C(=O)N(c2ccc(OC)c(F)c2)C(C)C)cn1", "cytotoxicity at 10 µM": "-1.94%"}
{"compound": "CN(CC(=O)NCc1ccccn1)CC1CCCN1c1cccnn1 (stereo not drawn)", "cytotoxicity at 10 µM": "-5.47%"}

# per-item lookup of cytotoxicity at 10 µM; items listed below
1. CC(C)(C)c1cc(NC(=O)C2CCCO2)n(-c2ccccn2)n1 (stereo not drawn)
2. O=C(CN1CCCC(Cn2cncn2)C1)NCc1ccco1 (stereo not drawn)
3. CCN(Cc1cnn(CC)c1)C(=O)Cn1c(=O)c(C)nc2ccccc21

Result:
1: -1.26%; 2: -0.587%; 3: 0.791%

Hi! Can you tell me cytotoxicity at 10 µM for each of these compounds?
1. CN(C)c1ncncc1NC(=O)Cc1c[nH]c2ccc(F)cc12
2. Cn1ccc(C2CCCCN2C(=O)c2cccc(-n3cccn3)c2)n1 (stereo not drawn)
3. CNC(=O)c1ccc(C2CN(C(=O)c3coc(C)n3)CCO2)nc1 (stereo not drawn)
4. COc1ccc(OC)c(CN(C(=O)c2ccc(C)[nH]c2=O)C2CC2)c1

Result:
-9.74%
-0.874%
-7.69%
-1.59%

Dear reader, for each entry below, please note its cytotoxicity at 10 µM.
1. O=C(Cc1ccsc1)N1C[C@@H]2CN(Cc3ccoc3)CCO[C@@H]2C1
2. O=C(c1ccc[nH]1)N1CCc2onc(COc3cccnc3)c2C1

Result:
-1.73%
-62.6%

For every item in the list below, what is its measured cytotoxicity at 10 µM?
1. COc1ccc(C(=O)N2CC(=O)N(Cc3cccs3)CC(O)C2)cc1 (stereo not drawn)
2. Cn1nnnc1SCC1COc2ccccc2O1 (stereo not drawn)
3. CNC(=O)c1cc2c(nc1NCC(C)C)CCN(S(=O)(=O)N(C)C)CC2
4. Cc1ccc(Oc2ncccc2C(=O)N(C)CCCN(C)C)cc1
5. CN(CC(O)C(F)(F)F)C(=O)Nc1cccc(N2CCCC2)c1 (stereo not drawn)
6. CC(C)NC(=O)N[C@H]1C[C@@H](Cc2cc(CN3CCOCC3)on2)C1(C)C
7. O=S1(=O)NCC2(CCN(Cc3ccc(Cl)s3)C2)Oc2ncccc21 (stereo not drawn)

Result:
1. 4.43%
2. -1.94%
3. -151%
4. 1.73%
5. 5.48%
6. -5.5%
7. 4.65%

Provide reported cytotoxicity at 10 µM for each item, in the same order as listed.
1. Cc1ccc(OC2(C(=O)O)CCN(C/C=C/c3ccco3)CC2)c(C)n1
2. Cc1csc(C2CCCCN2C(=O)COCc2nc(C)no2)n1 (stereo not drawn)
3. O=C(c1cccnc1)N1C[C@H]2CC[C@@H](C1)N(Cc1ccc(F)cc1Cl)C2
4. O=c1[nH][nH]cc1-c1ccnc(NCCc2cccnc2)n1

Result:
1: 0.449%; 2: 1.09%; 3: 1.17%; 4: -8.86%

Task: Which cytotoxicity at 10 µM is reported for this compound? O=C(NCCc1cc(N2CCOCC2)nc(N2CCCC2)n1)C1CC1
Result: 6.8%

---

Hi there, I'd appreciate the recorded cytotoxicity at 10 µM for every entry that follows.
assay-method-text: Toxicity liver stage against HepG2, at 10uM
Assay type: cell-based
Parameters: test concentration 10 uM, cell line HepG2-A16-CD81EGFP
cond: human, HepG2-A16-CD81EGFP cells; read-out: INHIBITION

{"molecule": "O=C1CSC(c2ccsc2)c2c(n(C3CCOCC3)[nH]c2=O)N1 (stereo unspecified)", "observable": "cytotoxicity at 10 µM", "value": "9.53%"}
{"molecule": "CCn1nnc2c1C(COCC(=O)N(C)C)CN(Cc1ccoc1)C2 (stereo unspecified)", "observable": "cytotoxicity at 10 µM", "value": "-2.98%"}
{"molecule": "O=C(c1ccc2c(c1)OCO2)N1C[C@H](OCC2CC2)[C@H]2COC[C@H]21", "observable": "cytotoxicity at 10 µM", "value": "-166%"}
{"molecule": "CCN1CCN(C2CCN(Cc3nc(CCOC)no3)CC2)C1=O", "observable": "cytotoxicity at 10 µM", "value": "-9.44%"}
{"molecule": "CCOCCCC(=O)N1CCCC1c1nc(-c2ccccc2F)c[nH]1 (stereo unspecified)", "observable": "cytotoxicity at 10 µM", "value": "12.5%"}

Parameters: items (list). Returns: cytotoxicity at 10 µM for each item.
1. CN1CCC(NC(=O)Nc2cnn(-c3ccccc3Cl)c2)C1=O (stereo unspecified)
2. Cc1cc(Nc2ccc(F)cn2)cc(C2CCN(Cc3ncc[nH]3)C2)n1 (stereo unspecified)
3. CN(C)C(=O)c1cccc(Nc2cnn(C)c2)c1
4. Cn1nnnc1SCC1Cc2ccccc2O1 (stereo unspecified)
5. CCOc1ccccc1N(C)C(=O)c1cscn1

Result:
-4.17%
-8.26%
5.42%
14.9%
-0.704%

Task: Name the recorded cytotoxicity at 10 µM for CC(C)N(C)C(=O)c1ccc(CNc2ncc(C#N)cc2Cl)cc1 .
Result: 15.9%

---

For each entry below, report its cytotoxicity at 10 µM value.
assay-method-text: Toxicity liver stage against HepG2, at 10uM
Assay type: cell-based
Parameters: test concentration 10 uM, cell line HepG2-A16-CD81EGFP
cond: human, HepG2-A16-CD81EGFP cells; read-out: INHIBITION
Numbers only, in %.

{"compound": "COc1ccc(C(N)=O)cc1NCc1nc(-c2cccs2)oc1C", "unit-of-measurement": "%", "value": 1.83}
{"compound": "CC(C)n1cnnc1CNC(=O)c1cnn(Cc2ccccc2)c1", "unit-of-measurement": "%", "value": 0.536}

Value sought for every listed compound: cytotoxicity at 10 µM.
1. COc1cc(C(=O)NS(=O)(=O)c2cccc(C#N)c2)cc(Cl)c1OC
2. COCCN1CCCC1c1ccnc(-c2ccccc2)n1 (centres undefined)
3. OCCN1CCCC(c2nccnc2Oc2ccc(F)cc2)C1 (centres undefined)

Result:
1. -3.93
2. 1.09
3. 25.6

Below are some compounds; for each one, tell me its cytotoxicity at 10 µM.
1. CN(C)c1ncccc1C(=O)N1CCc2c(ncn2C2CC2)C1
2. Cc1ccn(-c2ccc(N3CCCN(Cc4ccccc4)CC3)nn2)n1
3. Cc1nc(CN2CCC(O)(c3ccccc3F)CC2)c2ccccn12
4. O=c1c2sccc2ncn1CC(O)CN1CCOCC1 (centres undefined)
5. O=C(c1cnc(-c2ccco2)s1)N1CCCCC1Cn1cccn1 (centres undefined)

Result:
[1.28, 9.31, 2.45, 7.27, -5.83]

// each compound listed below needs its cytotoxicity at 10 µM
1. COc1cc(-c2n[nH]c(CC#N)n2)cc(OC)c1OC
2. CCOc1cc(C(=O)N(C)C)ccc1NC(=O)c1ccsc1
3. Cc1ccc(C(=O)N(C)C)cc1NC(=O)COCC1CC1
4. CC(C)(C)c1nnc(CNc2c(F)cccc2-n2cccn2)o1
5. CC(=O)N1CCC(c2cncc(N3CCCC(O)C3)n2)CC1 (centres undefined)
6. Cc1nc(NC(=O)N(C)Cc2ccsc2)nn1C
7. CN(c1nccc(-c2cnc3sc(Cl)cn3c2=O)n1)C1CCCCC1

Result:
-175
-0.587
2.95
-8.25
-1.47
1.81
1.36

---

assay-method-text: Toxicity liver stage against HepG2, at 10uM
Format: cell-based
Set-up: test concentration 10 uM, cell line HepG2-A16-CD81EGFP
cond: human, HepG2-A16-CD81EGFP cells; read-out: INHIBITION
observable: cytotoxicity at 10 µM (%)
Give bare numbers, in %.

Some solved cases for reference:
{"compound": "CC(C)N(CCNC(=O)c1[nH]nc2ccc(I)cc12)C(C)C", "cytotoxicity at 10 µM, %": -41.1}
{"compound": "O=C(O)C1(Cc2ccccc2Cl)CCN(c2ncccc2F)CC1", "cytotoxicity at 10 µM, %": -12.3}
{"compound": "Cc1cccc(OCCC(=O)N2CCN(S(=O)(=O)N(C)C)CC2)c1C", "cytotoxicity at 10 µM, %": 2.66}

Here are 4 compounds. What values of cytotoxicity at 10 µM were reported for them?
1. COc1cccc(N2CCC(N3CCOC(C(F)(F)F)C3)CC2)c1 (stereo unspecified)
2. COc1cc(Cl)cc(C(=O)N2CCC3(CC2)CNC(=O)C3)c1
3. Cc1cc2n(n1)CC(CNCc1cnn(C)c1)CN2 (stereo unspecified)
4. O=C(c1ccccc1N1CCOCC1)N1CCCC1Cn1cccn1 (stereo unspecified)

Result:
1: -1.71; 2: -18.1; 3: 5.25; 4: -7.44

Please go through the list and note cytotoxicity at 10 µM for each compound.
1. Cc1cnn(CC2CCCN2CC(=O)N(C)Cc2ccsc2)c1 (stereo unspecified)
2. CC(C)c1cc(C(=O)N2CCCC2c2nc(-c3ccccc3)no2)[nH]n1 (stereo unspecified)
3. CCCc1nnc(N2C[C@@H](C)[C@@](C)(O)C2)s1
4. CC(C)C(C(=O)N1CCCN(c2cccnn2)CC1)n1cncn1 (stereo unspecified)

Result:
1: 3.82; 2: -4.5; 3: 1.22; 4: -20.7
